The measurements presented in this section are drawn from ChEMBL document CHEMBL1145813.

# targetSystem: Amyloid-beta precursor protein (Homo sapiens, UniProt P05067)
# Sequence (P05067 whole entry): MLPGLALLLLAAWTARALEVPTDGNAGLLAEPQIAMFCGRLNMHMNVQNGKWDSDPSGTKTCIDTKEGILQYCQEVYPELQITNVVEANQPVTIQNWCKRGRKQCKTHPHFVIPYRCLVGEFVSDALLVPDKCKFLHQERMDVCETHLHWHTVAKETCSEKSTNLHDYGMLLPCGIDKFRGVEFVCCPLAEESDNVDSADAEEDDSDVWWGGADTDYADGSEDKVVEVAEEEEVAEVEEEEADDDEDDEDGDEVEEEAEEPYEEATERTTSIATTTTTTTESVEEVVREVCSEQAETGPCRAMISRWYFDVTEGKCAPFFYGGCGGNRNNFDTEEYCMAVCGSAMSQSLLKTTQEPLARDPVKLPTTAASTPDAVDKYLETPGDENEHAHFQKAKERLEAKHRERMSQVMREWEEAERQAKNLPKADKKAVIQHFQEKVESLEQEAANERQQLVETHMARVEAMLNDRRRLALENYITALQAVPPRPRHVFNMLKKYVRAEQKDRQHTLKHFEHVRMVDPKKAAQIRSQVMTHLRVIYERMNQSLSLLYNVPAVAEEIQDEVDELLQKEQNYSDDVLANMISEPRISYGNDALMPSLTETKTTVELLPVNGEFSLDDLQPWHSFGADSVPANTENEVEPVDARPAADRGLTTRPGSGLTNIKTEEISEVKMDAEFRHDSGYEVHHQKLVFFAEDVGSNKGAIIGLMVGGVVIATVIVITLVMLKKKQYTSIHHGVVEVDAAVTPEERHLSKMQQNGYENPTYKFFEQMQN
# methodNotes: Binding affinity for Amyloid beta 1-40 aggregates in competition with [N-methyl-3H] BTA-1.
pKi: −log10 of the molar value.
resultType: pKi

# chemicalStructure, resultType, measurement
records = [
    ("N#Cc1ccc2nc(-c3ccc(N)cc3)sc2c1", "pKi", 7.19),
]

a: Cc1ccc2nc(-c3ccc(N(C)C)cc3)sc2c1
b: CN(C)c1ccc(-c2nc3ccccc3s2)cc1
Which of the two items, a and b , has the greater recorded pKi? Your answer should be the label attached to the chosen record.
b
